- assay_notes: gradient 5% acetonitrile 3 min, to 50% in 2 min, to 85% in 15 min, held 3 min, 100 µL/min
- cond: column: Zorbax Extend-C18 2.1 x 50 mm; eluents: water / acetonitrile, 0.1% formic acid
Decision: RP-LC retention time >= 700 s yields rule met, all other cases yield rule not met.

Worked set:
[
  {
    "compound": "Cc1cc(C(=O)NCCN2CCN(C(=O)c3cccs3)CC2)c(C)o1",
    "discrete_label": "rule not met"
  },
  {
    "compound": "COc1ccc(N2CCN(C(=O)Cn3cccc3-c3nnc(C4CCC4)o3)CC2)cc1",
    "discrete_label": "rule met"
  },
  {
    "compound": "COC(=O)c1cccc(C(=O)Nc2ccc(F)cc2Cl)n1",
    "discrete_label": "rule met"
  },
  {
    "compound": "O=C1N(c2cccc(F)c2)c2ncccc2S(=O)(=O)N1Cc1cccc(F)c1",
    "discrete_label": "rule met"
  },
  {
    "compound": "COc1ccc(C2c3sc(=O)[nH]c3SC3C(=O)N(CC(=O)O)C(=O)C32)cc1 (centres undefined)",
    "discrete_label": "rule not met"
  },
  {
    "compound": "CCC(C(=O)NCCCOC)n1c2ccccc2c2cnn(C)c(=O)c21 (centres undefined)",
    "discrete_label": "rule met"
  },
  {
    "compound": "O=S(=O)(c1cc(-c2nnc(C3CCC3)o2)co1)N1CCc2ccccc2C1",
    "discrete_label": "rule met"
  },
  {
    "compound": "CCC(C)NC(=O)c1ccc2c(c1)N(C(=O)NC)CC2 (centres undefined)",
    "discrete_label": "rule not met"
  }
]

Check if RP-LC retention time >= 700 s (inclusive). Item: O=C(c1ccc(-c2cccs2)nc1)N1CCN(c2ccccc2)CC1
rule met

Check if RP-LC retention time >= 700 s (inclusive). Item: CCN(C(=O)C1CCCN(c2ncnc3c2nc2n3CCCCC2)C1)c1ccccc1C (centres undefined)
rule met

Check if RP-LC retention time >= 700 s (inclusive). Item: Cn1cc(C(=O)NCc2ccccc2Cl)c(S(=O)(=O)N2CCSCC2)n1
rule met

Check if RP-LC retention time >= 700 s (inclusive). Item: CCOc1ccc(-n2nnc3c(=O)n(C/C=C/c4ccccc4)cnc32)cc1
rule met

Check if RP-LC retention time >= 700 s (inclusive). Item: COc1cc(NC(=O)N2CCC(N3CCN(Cc4ccc(F)cc4)C(=O)C3=O)CC2)cc(OC)c1
rule met

----------
Parameter RP-LC retention time: see the listing below.
- assay_notes: gradient 5% acetonitrile 3 min, to 50% in 2 min, to 85% in 15 min, held 3 min, 100 µL/min
- cond: column: Zorbax Extend-C18 2.1 x 50 mm; eluents: water / acetonitrile, 0.1% formic acid
Kindly provide the numeric value in s only, without the unit symbol.

[
  {
    "molecule": "CCCNC(=O)C1CCCN(c2nnc3c(Cl)cccn23)C1 (stereo not given)",
    "value_unit": "s",
    "RP-LC retention time": 571
  },
  {
    "molecule": "Cn1c(=O)c2cc(C(=O)N3CCN(C(=O)c4ccco4)CC3)sc2n(C)c1=O",
    "value_unit": "s",
    "RP-LC retention time": 574
  },
  {
    "molecule": "CCCNc1cc(N2CCC(CCC(=O)Nc3cc(C)ccc3C)CC2)ncn1",
    "value_unit": "s",
    "RP-LC retention time": 608
  },
  {
    "molecule": "Cc1ccc(C(CC(=O)NCCCN2CCCC2)N2Cc3ccccc3C2=O)cc1 (stereo not given)",
    "value_unit": "s",
    "RP-LC retention time": 639
  },
  {
    "molecule": "O=C(C1COc2ccccc2O1)N1CCOc2ccc(N3CCCC3)cc2C1 (stereo not given)",
    "value_unit": "s",
    "RP-LC retention time": 794
  },
  {
    "molecule": "Cc1nn(C)cc1C(C)NC(=O)C1CCN(c2cn[nH]c(=O)c2)CC1 (stereo not given)",
    "value_unit": "s",
    "RP-LC retention time": 568
  },
  {
    "molecule": "COc1ccc(S(=O)(=O)N2CCCC(C(=O)NCCCO)C2)cc1OC (stereo not given)",
    "value_unit": "s",
    "RP-LC retention time": 880
  },
  {
    "molecule": "CN(C(=O)C1CCCN(c2ncnc3c2nc2n3CCCCC2)C1)c1cccc(Cl)c1 (stereo not given)",
    "value_unit": "s",
    "RP-LC retention time": 851
  },
  {
    "molecule": "CCc1cccc(Nc2c(C(=O)N3CCOCC3)cnc3nc(C)ccc23)c1",
    "value_unit": "s",
    "RP-LC retention time": 617
  }
]

Read the next record carefully.
Which RP-LC retention time value belongs to Fc1ccc(-c2nnc(Cc3nc(-c4cccc(C(F)(F)F)c4)no3)o2)cc1 ?
1110

Hello, the source for this data is the METLIN SMRT retention time set (Domingo-Almenara et al. 2019), in case you need it.
